Source of measurements: PubChem BioAssay AID624330

The following compounds are shown together with reported inhibition values.
target under test: Rac GTPase-activating protein 1 (Homo sapiens) (UniProt Q9H0H5)
Sequence (Q9H0H5 whole entry, looked up): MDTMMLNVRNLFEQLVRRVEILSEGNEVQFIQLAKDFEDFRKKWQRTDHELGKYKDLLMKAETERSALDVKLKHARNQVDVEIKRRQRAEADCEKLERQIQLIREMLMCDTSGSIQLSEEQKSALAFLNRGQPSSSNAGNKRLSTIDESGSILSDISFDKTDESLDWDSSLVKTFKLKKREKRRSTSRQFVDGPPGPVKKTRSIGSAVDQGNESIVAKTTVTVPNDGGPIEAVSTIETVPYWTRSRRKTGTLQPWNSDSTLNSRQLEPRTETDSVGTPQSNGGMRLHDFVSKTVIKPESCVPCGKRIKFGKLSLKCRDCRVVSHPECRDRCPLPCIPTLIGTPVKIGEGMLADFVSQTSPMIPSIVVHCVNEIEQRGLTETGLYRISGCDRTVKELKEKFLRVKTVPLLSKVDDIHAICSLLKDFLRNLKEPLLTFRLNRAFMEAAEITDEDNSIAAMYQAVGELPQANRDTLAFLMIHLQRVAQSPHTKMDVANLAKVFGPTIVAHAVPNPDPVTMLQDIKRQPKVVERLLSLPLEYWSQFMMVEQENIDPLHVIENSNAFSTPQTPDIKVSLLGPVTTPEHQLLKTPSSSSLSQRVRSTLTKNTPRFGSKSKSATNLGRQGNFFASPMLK
test summary: blockers of MgcRacGAP-driven Rac1 GTP hydrolysis – biochemical, ADP Hunter fluorescence, primary and confirmatory, confirmation (AID 624330);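 also: fluorescence reports GDP produced by GAP-driven GTP hydrolysis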
condition parameters: MgcRacGAP-stimulated Rac1 GTP hydrolysis, at 30 µM, active compounds read high, GST-tagged Rac1 F28L mutant substrate
Out of some 340,000 compounds screened, about 2,100 (0.62%) were called active. A selection follows. Measured potencies and affinities stand elsewhere.

compound	inhibition, %
CC(Oc1ccc(Cl)cc1)C(=O)Nc1ccccc1N1CCOCC1 (stereo not drawn)	2.3
Cc1cc(C)c(OCCCNCc2ccccc2)c(Br)c1	26.8
COCCNc1nc(CSc2ccccc2)nc2sc(C)c(C)c12	8.51
Cc1ccc(N=c2ssnc2Cl)cc1	9.47
C#CCOCCOCCOCCNc1nc(N2CCN(C(=O)[C@H](CCCCN)n3cc(CN)nn3)CC2)nc(N2CCN(C(=O)[C@H](CCCN=C(N)N)n3cc(C(N)[C@H](C)CC)nn3)CC2)n1 (stereo partly drawn)	7.55
N#C/C(=C/c1cccc(O)c1)C(=O)NCc1ccc(Cl)cc1	24.4
COC1=C(Nc2ccc(C)cc2)C(=O)c2ccccc2C1=O	6.66
COCCNCCCCOc1c(Cl)cc(C)cc1Br	27.8
CCOc1ccccc1NC(=O)CN(c1ccc(C)cc1)S(=O)(=O)c1c(C)n[nH]c1C	0.88
COCCNC(=S)Nc1cc(OC)c(NC(=O)c2ccco2)cc1OC	3.43
COc1ccc2c(C)cc(SCC(=O)NC3CCCCC3)nc2c1	3.25
COCCNC(=O)c1ccc(-c2csc(C)n2)cc1	3.59
O=C(CCCn1c(=O)[nH]c2ccccc2c1=O)NCCSCc1ccccc1	-5.64
O=C1CN(C(=O)COC(=O)CCc2ccccc2O)c2ccccc2N1	1.54
Cc1ccc(Oc2coc3cc(OC(=O)c4cccs4)ccc3c2=O)cc1	1.09
O=C(NCc1ccccc1)/C(=C\c1ccccc1)NC(=O)c1ccco1	6.99
Nc1nc(-c2ccccc2)c(-c2ccccc2)s1	10.3
Cc1csc(=O)n1CC(=O)OCC(=O)c1c(N)n(CC(C)C)c(=O)n(C)c1=O	-0.27
COCCNCc1ccccc1	-2.56
CCOc1cc(/C=C(\C#N)C(=O)NCC2CCCO2)ccc1OCC(N)=O (stereo not drawn)	4.74
Cc1ccc(S(=O)(=O)N(C)CCN(C)S(=O)(=O)c2ccc(C)cc2)cc1	6.45
Cc1nc2ccc(NC(=O)CCS(=O)(=O)c3ccc(Cl)cc3)cc2s1	-5.04
CCN(CC)CCCNC(=S)N1CCn2c(nc3ccccc32)C1	6.61
O=C(NCc1ccc(F)cc1)C1CCC(=O)N1C1CCCCC1 (stereo not drawn)	-0.47
OC(CN1CCN(Cc2ccccc2)CC1)c1ccc(F)cc1 (stereo not drawn)	-1.4
CCCc1nc2ccccc2n1CCOc1ccccc1	3.33
COC1=C(Nc2ccccc2)C(=O)c2ccccc2C1=O	11.3
Cc1cc(C)cc(NC(=O)COC(=O)CCCNC(=O)c2ccc(Cl)cc2)c1	3.85
O=C(NCc1nnc2c(C(F)(F)F)cc(Cl)cn12)c1cccnc1	9.23
COCCNC(=S)Nc1cc2oc3ccccc3c2cc1OC	17.8
CC1=Nc2cc(C(=O)O)ccc2Sc2ccc(C)cc21	-10.1
Cc1nnc(NC(=O)CSc2ccccc2N)s1	6.42
O=C(NCc1ccccc1)/C(=C/c1ccccc1)NC(=O)c1ccco1	2.6

* * *

Here, each record is paired with measured inhibition data.
target under test: Rac GTPase-activating protein 1 (Homo sapiens) (UniProt Q9H0H5)
test summary: blockers of MgcRacGAP-driven Rac1 GTP hydrolysis – biochemical, ADP Hunter fluorescence, primary and confirmatory, confirmation (AID 624330);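 also: fluorescence reports GDP produced by GAP-driven GTP hydrolysis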
condition parameters: MgcRacGAP-stimulated Rac1 GTP hydrolysis, at 30 µM, active compounds read high, GST-tagged Rac1 F28L mutant substrate
Among all 340,000 compounds or so, about 2,100 (0.62%) were called active. Only a sample is shown. Entries with a potency or affinity are not part of this list.
measured attribute: inhibition (%)

                                    compound                         target_under_test  result_value
 0  CCOc1ccc(NC(=O)Nc2c(C)n(C)n(-c3ccccc3)c2=O)cc1  Rac GTPase-activating protein 1 (Homo sapiens) (UniProt Q9H0H5)          0.15
 1   COc1ccc(N2C(=O)/C(=C/c3cccnc3)NC2=S)cc1  Rac GTPase-activating protein 1 (Homo sapiens) (UniProt Q9H0H5)          3.24
 2    Cc1cc(C)n2c(SCC(=O)Nc3ccccc3C#N)nnc2n1  Rac GTPase-activating protein 1 (Homo sapiens) (UniProt Q9H0H5)          2.29
 3  c1ccc(CN2CCC(N3CCN(Cc4ccc5c(c4)OCO5)CC3)CC2)cc1  Rac GTPase-activating protein 1 (Homo sapiens) (UniProt Q9H0H5)          13.3
 4  CCOC(=O)CC(NC(=O)c1ccccc1)c1ccc(OC)cc1 (centres undefined)  Rac GTPase-activating protein 1 (Homo sapiens) (UniProt Q9H0H5)          3.97
 5  COc1cc(/C=C/C(=O)OCC(=O)Nc2ccc([N+](=O)[O-])cc2)ccc1O  Rac GTPase-activating protein 1 (Homo sapiens) (UniProt Q9H0H5)           4.8
 6              Cc1nn2cc(-c3ccc(Cl)cc3)nc2s1  Rac GTPase-activating protein 1 (Homo sapiens) (UniProt Q9H0H5)         -6.27
 7     Cn1ccnc1Sc1nc2c(c(=O)n(C)c(=O)n2C)n1C  Rac GTPase-activating protein 1 (Homo sapiens) (UniProt Q9H0H5)          1.94
 8  COc1cc(/C=C/C(=O)OCC(=O)Nc2cc(C)c(C)cc2[N+](=O)[O-])ccc1O  Rac GTPase-activating protein 1 (Homo sapiens) (UniProt Q9H0H5)          9.32
 9  Cc1cc(N2C(=O)C(O)=C(C(=O)c3cc4ccccc4o3)C2c2ccc(Cl)cc2)no1 (centres undefined)  Rac GTPase-activating protein 1 (Homo sapiens) (UniProt Q9H0H5)         -5.51
10  O=C(N/N=C\c1cn[nH]c1-c1ccccc1)c1ccc([N+](=O)[O-])cc1  Rac GTPase-activating protein 1 (Homo sapiens) (UniProt Q9H0H5)          9.27
11     CN(C)C(/C=C/Nc1ccc(C#N)cc1)=C(C#N)C#N  Rac GTPase-activating protein 1 (Homo sapiens) (UniProt Q9H0H5)          4.16
12         Cc1cc(C)n2nc(N)c(N=Nc3ccccc3)c2n1  Rac GTPase-activating protein 1 (Homo sapiens) (UniProt Q9H0H5)          13.3
13  Cc1cccc(NC(=O)CCCN=C2NS(=O)(=O)c3ccccc32)c1C  Rac GTPase-activating protein 1 (Homo sapiens) (UniProt Q9H0H5)         -1.68

* * *

target under test: Rac GTPase-activating protein 1 (Homo sapiens)
test summary: blockers of MgcRacGAP-driven Rac1 GTP hydrolysis – biochemical, ADP Hunter fluorescence, primary and confirmatory, confirmation (AID 624330);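 also: fluorescence reports GDP produced by GAP-driven GTP hydrolysis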
condition parameters: MgcRacGAP-stimulated Rac1 GTP hydrolysis, at 30 µM, active compounds read high, GST-tagged Rac1 F28L mutant substrate
Among all 340,000 compounds or so, about 2,100 (0.62%) were called active. These entries were drawn from the full list. Measured potencies and affinities stand elsewhere.
# key: entry, value: inhibition
measured attribute: inhibition (%)

                                    compound  result_value
 0                       CNC(=S)NCCCc1ccccc1          8.61
 1        S=C(NCc1ccco1)Nc1ccc(Oc2ccccc2)cc1          1.09
 2    N#Cc1ccccc1NC(=O)CSc1n[nH]c(=O)n1C1CC1         -2.21
 3  Cc1ccc(NC(=O)c2cc(NC(=O)c3ccco3)ccc2N2CCOCC2)cc1Cl         -19.1
 4      COCCNC(=O)/C(C#N)=C/c1ccc(C(=O)O)cc1          0.25
 5     CCOc1ccc(Oc2ccccc2NC(=O)C2=COCCO2)cc1         -5.82
 6        O=C1CN(C(=O)c2ccc(F)cc2)c2ccccc2N1          12.4
 7  COc1ccc(F)cc1S(=O)(=O)NCC1CCCO1 (stereo unspecified)          1.18
 8               Nc1nc(NC(=O)c2ccc(F)cc2)ns1          7.21
 9  COc1ccc(C2NN=C(c3ccc(C)cc3)S2)cc1 (stereo unspecified)          7.81
10  O=C(CNCc1cccs1)Nc1ccc(S(=O)(=O)N2CCCCC2)cc1          14.5
11     O=C(CCCc1cccs1)Nc1nc(-c2ccc(F)cc2)cs1          9.23
12          Nc1c(-c2cccc(Cl)c2)cnn1-c1ccccc1          20.3
13  O=C(CC(c1ccccc1)c1ccccc1O)NCc1ccco1 (stereo unspecified)          15.2
14  COc1ccc(C2NN=C(c3ccc(C)cc3)S2)cc1OC (stereo unspecified)         -0.47
15  O=[N+]([O-])c1ccc2oc(/C=C/c3ccc(O)cc3)nc2c1          13.2
